tested on: Pseudomonas fluorescens HPPD polypeptide (wild-type and mutants); assay: Coupled HPPD activity assay: turnover and residual turnover in crude HPPD polypeptide extracts with and without Cmpd. 1; format: biochemical; conditions: 100 μM Cmpd. 1, normalised to turnover without inhibitor
TEST_READOUT: Residual turnover [%] (%)
Give the value, in units of %, as a plain number.

Input line: // fetch Residual turnover [%] given entry SEQ ID NO:58 (protein, mutant HPPD polypeptide) MADLYENPMGLMGFEFIEFASPTPGTLEPIFEIMGFTKVATHRSKNVHLYRQGEINLILNNEPNSIASYFAAEHGPSVCGMAFRVKDSQKAYNRALELGAQPIHIDTGPMELNLPAIKGIGGAPLYLIDRFGEGSSIYDIDFVYLEGVERNPVGAGLKVIDHLTHNVYRGRMVYWANFYEKLFNFREARYFDIKGEYTGLTSKAMSAPDGMIKIPLNEESSKGAGQIEEFLMQFNGEGIQHVAFLTDDLVKTWDALKKIGMRFLTAPGDEYYEMLEGRLPDHGEPVDQLQARGILLDGSSVEGDKRLLLQIFSEQLMGPVFFEFIQRKGDDGFGPHSFKVLFEQMERDQVRRGVLTAD
Output line: 81

The reported measurements were obtained from patent US11371056B2.
